# experimental system: T1, Dmr1p (Ccm1p), tag removed (Saccharomyces cerevisiae, UniProt P48237 27-864)
# T1 sequence: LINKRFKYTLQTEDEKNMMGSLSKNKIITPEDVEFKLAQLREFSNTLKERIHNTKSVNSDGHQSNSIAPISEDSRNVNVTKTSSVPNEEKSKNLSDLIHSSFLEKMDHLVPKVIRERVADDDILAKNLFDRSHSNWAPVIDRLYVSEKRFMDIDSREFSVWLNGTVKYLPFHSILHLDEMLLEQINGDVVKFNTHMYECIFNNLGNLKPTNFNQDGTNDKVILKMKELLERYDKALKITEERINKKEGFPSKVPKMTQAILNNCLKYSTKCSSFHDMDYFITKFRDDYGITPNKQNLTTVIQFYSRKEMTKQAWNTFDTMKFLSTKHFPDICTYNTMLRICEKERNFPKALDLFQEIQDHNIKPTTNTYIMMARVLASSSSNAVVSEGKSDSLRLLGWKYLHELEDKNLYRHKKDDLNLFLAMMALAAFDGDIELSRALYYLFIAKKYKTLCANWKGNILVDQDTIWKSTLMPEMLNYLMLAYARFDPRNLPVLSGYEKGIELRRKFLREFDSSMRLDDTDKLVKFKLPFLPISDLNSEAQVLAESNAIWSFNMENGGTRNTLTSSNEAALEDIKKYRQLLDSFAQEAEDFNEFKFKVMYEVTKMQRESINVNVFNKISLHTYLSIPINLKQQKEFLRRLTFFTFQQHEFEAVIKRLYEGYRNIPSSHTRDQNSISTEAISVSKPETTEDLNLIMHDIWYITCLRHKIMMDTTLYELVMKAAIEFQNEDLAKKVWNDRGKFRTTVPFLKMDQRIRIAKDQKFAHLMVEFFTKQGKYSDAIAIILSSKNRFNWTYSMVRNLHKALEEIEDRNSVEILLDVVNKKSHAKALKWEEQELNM
# experimental details: EMSA; 0.2 ug tRNA; EMSA as in Puchta et al. 2010 (buffer not restated), 15 uL, up to 0.8 ug Dmr1p, BSA to constant protein, 0.2 ug tRNA; PNPase protection: 20 mM Tris-HCl pH 8.0
# condition description: protein: recombinant; tags: none after TEV cleavage (from Dmr1-MBP-His6); label: 32P-UTP
endpoint: binding result

[[record]]
binder = "GGAUAAUAAUAAUAAU (ssRNA) [15_14]"
endpoint = "binding result"
result = "binds"

[[record]]
binder = "GGAAAAGGAUAUAUAUAUAAUAUAUA (ssRNA) [N_24]"
endpoint = "binding result"
result = "no binding"

[[record]]
binder = "GGAAAUAAUAAUAAUAAUUAUAAGAC (ssRNA) [15_24]"
endpoint = "binding result"
result = "binds"

[[record]]
binder = "GGUAUAUAUAUAAUAU (ssRNA) [N_14]"
endpoint = "binding result"
result = "no binding"

